inhibition at 30 µM overview
Test system: guinea pig cartilage
Procedure Summary: Degradation of the cartilaginous matrix induced by IL-1β: degradation of proteoglycans (35SO4 glycosaminoglycan release)
Assay type: cell-based
Experimental Conditions: Cavia porcellus, 72 h; 3 × 10^-5 M; IL-1β (10 mg/ml), 3 days, cartilage labeled with 35SO4; read-out: proteoglycans % protection at 3 × 10^-5M
Structures can show the parent of a compound that is named as a salt.
Please reply with the bare figure in % and do not write the unit itself.

COc1ccc(S(=O)(=O)N2Cc3nc[nH]c3C[C@@H]2C(=O)NO)cc1 [Example 23, Hydrochloride]    24
COc1ccc(S(=O)(=O)N2Cc3sccc3C[C@@H]2C(=O)NO)cc1    60
COc1ccc(S(=O)(=O)N2Cc3occc3C[C@@H]2C(=O)NO)cc1    34

Report inhibition at 30 µM for COc1ccc(S(=O)(=O)N2Cc3ccsc3C[C@@H]2C(=O)NO)cc1 please.
45
